Target: T1, human cMet expressed on 3T3 cells (human, UniProt P08581 25-1390)
T1 construct: whole, on cells; cells fixed with glutaraldehyde; also called cell surface-expressed human cMet; 3T3 cells that over-express human cMet
T1 sequence (P08581 25-1390): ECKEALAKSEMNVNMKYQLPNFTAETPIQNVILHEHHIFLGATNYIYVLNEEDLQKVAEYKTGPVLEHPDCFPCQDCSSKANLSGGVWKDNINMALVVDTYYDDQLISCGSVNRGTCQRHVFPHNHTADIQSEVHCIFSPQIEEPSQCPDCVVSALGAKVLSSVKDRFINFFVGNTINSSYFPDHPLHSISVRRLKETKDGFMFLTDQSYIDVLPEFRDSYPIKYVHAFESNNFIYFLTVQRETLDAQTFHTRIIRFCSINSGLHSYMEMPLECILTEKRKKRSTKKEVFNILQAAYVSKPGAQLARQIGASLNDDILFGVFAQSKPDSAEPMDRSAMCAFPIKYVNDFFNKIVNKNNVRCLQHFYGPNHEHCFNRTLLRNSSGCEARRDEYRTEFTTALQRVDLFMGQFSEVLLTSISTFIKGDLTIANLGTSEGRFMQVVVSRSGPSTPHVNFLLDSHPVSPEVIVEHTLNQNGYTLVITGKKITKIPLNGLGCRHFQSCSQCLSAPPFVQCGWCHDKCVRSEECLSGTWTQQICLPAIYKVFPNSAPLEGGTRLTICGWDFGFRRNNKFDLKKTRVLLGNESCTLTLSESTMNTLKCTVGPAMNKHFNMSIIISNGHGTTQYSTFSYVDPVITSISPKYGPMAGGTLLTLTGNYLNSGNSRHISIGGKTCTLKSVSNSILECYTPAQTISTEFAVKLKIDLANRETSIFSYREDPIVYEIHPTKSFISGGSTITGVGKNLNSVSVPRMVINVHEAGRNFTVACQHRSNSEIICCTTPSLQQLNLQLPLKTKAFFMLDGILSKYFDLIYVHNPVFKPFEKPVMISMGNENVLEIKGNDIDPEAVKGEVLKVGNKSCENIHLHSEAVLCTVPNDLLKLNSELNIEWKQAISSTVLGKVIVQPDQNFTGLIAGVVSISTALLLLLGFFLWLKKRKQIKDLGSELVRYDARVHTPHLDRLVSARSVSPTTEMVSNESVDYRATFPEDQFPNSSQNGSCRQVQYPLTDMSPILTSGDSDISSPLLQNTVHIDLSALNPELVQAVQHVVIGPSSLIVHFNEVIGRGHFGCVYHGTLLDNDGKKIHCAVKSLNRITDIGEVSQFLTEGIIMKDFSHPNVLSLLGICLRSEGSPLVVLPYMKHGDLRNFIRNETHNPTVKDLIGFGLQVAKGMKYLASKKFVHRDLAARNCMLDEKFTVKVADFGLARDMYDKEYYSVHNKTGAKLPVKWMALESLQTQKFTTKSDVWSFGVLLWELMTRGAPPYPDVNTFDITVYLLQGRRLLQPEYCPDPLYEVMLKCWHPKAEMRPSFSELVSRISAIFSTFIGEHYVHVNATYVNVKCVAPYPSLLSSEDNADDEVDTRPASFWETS
Assay: whole cell phage ELISA, 3T3 human cMet vs 3T3
Assay Metric: WC ELISA (fold over background) (fold)
Answers are plain numbers, in fold.

# count of solved cases: 5
AGETFCSGWPTFECMQWGT [547-H03 peptide-displaying phage (SEQ ID NO: 095)] ... 1.23
GSEFECTGWPEFRCYEYAP [548-C10 peptide-displaying phage (SEQ ID NO: 100)] ... 1.2
GSQQICDRKEYRFQACLSDAP [443-H10 peptide-displaying phage (SEQ ID NO: 371)] ... 1.4
AQSDHDHAHWGVKHWPFRRYQ [93-B10 peptide-displaying phage (SEQ ID NO: 482)] ... 1.2
GDLLVCKFDDKFWTETCEWADP [549-G05 peptide-displaying phage (SEQ ID NO: 392)] ... 1.47

Look at each binder and report its WC ELISA (fold over background).
1. ADAWMCEYFQWNCGDKGT [458-B05 peptide-displaying phage (SEQ ID NO: 046)]
2. AQRPEAHYKLAMSYPIIPRTKT [96-H12 peptide-displaying phage (SEQ ID NO: 452)]

Ans:
1. 1.33
2. 1.37
